# Experiment summary: LDH release cytotoxicity assay
# Assay type: cell-based
# Run conditions: human, U937 cells
For each entry below, report its inhibition at 4 h, 50 µM value.

• CCCOc1ccc(CCNS(=O)(=O)c2c(C)n[nH]c2C)cc1OCCC = -2.7%
• Cc1nn(C)c(C)c1S(=O)(=O)N[C@H](C)c1cccc2ccccc12 = -1.8%
• Cc1nn(C)c(C)c1S(=O)(=O)NCCc1cccc(Cl)c1 = 1.8%
• Cc1n[nH]c(C)c1S(=O)(=O)NCCc1ccc(Cl)cc1 = -0.2%

Consider now this further molecule.
Incoming: // lookup inhibition at 4 h, 50 µM for Cc1n[nH]c(C)c1S(=O)(=O)NCCC1=CCCCC1
Outgoing: -0.4%

---

# System: U937 cells
# Experiment summary: CellTiter-Glo Luminescent cell viability assay
# Type: cell-based, human
# Run conditions: Homo sapiens, U-937, 72 h, read-out: percent inhibition at various concentrations of compounds (CellTiter-Glo, antiproliferative)
Reported property: inhibition at 100 µM (%)
Numbers only, in %.

• Cc1nn(C)c(C)c1S(=O)(=O)NCCc1cccc(Cl)c1 [MR-S1-8] = 34.6
• Cc1n[nH]c(C)c1S(=O)(=O)NCCc1cccc(Cl)c1 [MR-S1-7] = 24.2
• CCOCCn1c(C2CCN(S(=O)(=O)c3c(C)n[nH]c3C)CC2)nc2ccccc21 [MR-S1-19] = -1.3
• Cc1nn(C)c(C)c1S(=O)(=O)NCCC1=CCCCC1 [MR-S1-2] = 42.2
• Cc1n[nH]c(C)c1S(=O)(=O)NCCC1=CCCCC1 [MR-S1-1] = 54.2

Okay, next one:
Incoming: # query: inhibition at 100 µM of entry Cc1n[nH]c(C)c1S(=O)(=O)NCCc1c[nH]c2ccccc12 [MR-S1-16]
Outgoing: 22.5

---

# Experiment summary: LDH release cytotoxicity assay
# Type: cell-based
# Run conditions: human, U937 cells
Reported property: inhibition at 4 h, 100 µM (%)
One number for each entry, in %.

See these solved cases before continuing.
- Cc1nn(C)c(C)c1S(=O)(=O)NCCc1cccc(Cl)c1 [MR-S1-8]: 0.4
- Cc1n[nH]c(C)c1S(=O)(=O)NCCC1=CCCCC1 [MR-S1-1]: -1.8
- CCCOc1ccc(CCNS(=O)(=O)c2c(C)n[nH]c2C)cc1OCCC [MR-S1-12]: -0.9
- Cc1nn(C)c(C)c1S(=O)(=O)N[C@H](C)c1cccc2ccccc12 [MR-S1-15]: -2.7
- Cc1n[nH]c(C)c1S(=O)(=O)NCCc1cccc(Cl)c1 [MR-S1-7]: -3.1
- COc1ccc(CCNS(=O)(=O)c2c(C)n[nH]c2C)cc1OC [MR-S1-9]: -2.4

For each listed entry, give its inhibition at 4 h, 100 µM.
1. Cc1nn(C)c(C)c1S(=O)(=O)N1CCC(c2nc3ccccc3[nH]2)CC1 [MR-S1-18]
2. Cc1nn(C)c(C)c1S(=O)(=O)NCCC1=CCCCC1 [MR-S1-2]
3. Cc1n[nH]c(C)c1S(=O)(=O)NCCc1ccc(Cl)cc1 [MR-S1-5]

Outgoing:
1: -0.4; 2: -5.3; 3: -2.7

For every item in the list below, what is its measured inhibition at 4 h, 100 µM?
1. Cc1n[nH]c(C)c1S(=O)(=O)NCCc1ccccc1 [MR-S1-3]
2. Cc1n[nH]c(C)c1S(=O)(=O)N[C@H](C)c1cccc2ccccc12 [MR-S1-14]
3. Cc1nn(C)c(C)c1S(=O)(=O)NCCc1ccccc1 [MR-S1-4]
4. CCOCCn1c(C2CCN(S(=O)(=O)c3c(C)n[nH]c3C)CC2)nc2ccccc21 [MR-S1-19]
5. Cc1nn(C)c(C)c1S(=O)(=O)NCCc1c[nH]c2ccccc12 [MR-S1-17]
6. Cc1nn(C)c(C)c1S(=O)(=O)NCCc1ccc(Cl)cc1 [MR-S1-6]

Outgoing:
-1.3
-3.1
-1.8
-4
-1.6
-1.6

Incoming: Given the entry Cc1n[nH]c(C)c1S(=O)(=O)NCCc1c[nH]c2ccccc12 [MR-S1-16] , report its measured inhibition at 4 h, 100 µM.
Outgoing: -1.8

---

# Experiment summary: LDH release cytotoxicity assay
# Assay type: cell-based
# Run conditions: human, U937 cells
Give measured inhibition at 4 h, 25 µM for each item. Keep answers brief.
Give bare numbers, in %.

• Cc1nn(C)c(C)c1S(=O)(=O)NCCc1c[nH]c2ccccc12 [MR-S1-17] = -2

Below are some molecules; for each one, tell me its inhibition at 4 h, 25 µM.
1. CCCOc1ccc(CCNS(=O)(=O)c2c(C)n[nH]c2C)cc1OCCC [MR-S1-12]
2. Cc1n[nH]c(C)c1S(=O)(=O)NCCc1ccc(Cl)cc1 [MR-S1-5]
3. Cc1n[nH]c(C)c1S(=O)(=O)NCCc1c[nH]c2ccccc12 [MR-S1-16]
4. Cc1nn(C)c(C)c1S(=O)(=O)NCCc1ccc(Cl)cc1 [MR-S1-6]

Outgoing:
1. 0.7
2. -2.2
3. -0.9
4. -1.3

Incoming: Endpoint output: inhibition at 4 h, 25 µM of Cc1nn(C)c(C)c1S(=O)(=O)N1CCC(c2nc3ccccc3[nH]2)CC1 [MR-S1-18] . Value?
Outgoing: -1.8

---

For each entry below, report its inhibition at 100 µM value.
# System: U937 cells
# Experiment summary: CellTiter-Glo Luminescent cell viability assay
# Type: cell-based, human
# Run conditions: Homo sapiens, U-937, 72 h, read-out: percent inhibition at various concentrations of compounds (CellTiter-Glo, antiproliferative)
The reply should consist of the numeric value with the unit placed after it.

Below are worked cases with known answers.
* COc1ccc(CCNS(=O)(=O)c2c(C)n[nH]c2C)cc1OC | -21.2%
* Cc1n[nH]c(C)c1S(=O)(=O)N[C@H](C)c1cccc2ccccc12 | 68.7%
* Cc1n[nH]c(C)c1S(=O)(=O)NCCc1ccc(Cl)cc1 | 61.5%
* Cc1nn(C)c(C)c1S(=O)(=O)N1CCC(c2nc3ccccc3[nH]2)CC1 | 43.9%
* Cc1n[nH]c(C)c1S(=O)(=O)NCCc1ccccc1 | 31.8%

Hi, could you look up inhibition at 100 µM for each item in my list?
1. Cc1nn(C)c(C)c1S(=O)(=O)NCCc1ccc(Cl)cc1
2. Cc1nn(C)c(C)c1S(=O)(=O)N[C@H](C)c1cccc2ccccc12
3. Cc1nn(C)c(C)c1S(=O)(=O)NCCc1ccccc1
4. Cc1nn(C)c(C)c1S(=O)(=O)NCCc1c[nH]c2ccccc12
5. CCCOc1ccc(CCNS(=O)(=O)c2c(C)n[nH]c2C)cc1OCCC

Outgoing:
1. 28.4%
2. 88.5%
3. 37.8%
4. 32.2%
5. 100%

---

Provide the reported inhibition at 4 h, 12.5 µM of each item.
# Experiment summary: LDH release cytotoxicity assay
# Type: cell-based
# Run conditions: human, U937 cells
Number plus unit, in that order.

Worked examples, 4 molecules total:
- Cc1n[nH]c(C)c1S(=O)(=O)NCCC1=CCCCC1: -0.9%
- Cc1nn(C)c(C)c1S(=O)(=O)N1CCC(c2nc3ccccc3[nH]2)CC1: 0.2%
- Cc1n[nH]c(C)c1S(=O)(=O)NCCc1ccc(Cl)cc1: -1.8%
- Cc1nn(C)c(C)c1S(=O)(=O)NCCc1cccc(Cl)c1: 2.9%

Attention now shifts to the item below.
Incoming: Give its inhibition at 4 h, 12.5 µM value. Item: CCOCCn1c(C2CCN(S(=O)(=O)c3c(C)n[nH]c3C)CC2)nc2ccccc21
Outgoing: -4.9%

---

So I've got a bunch of compounds here, and I need their inhibition at 4 h, 50 µM values.
# Experiment summary: LDH release cytotoxicity assay
# Type: cell-based
# Run conditions: human, U937 cells
Answers without a unit are incomplete; give the number and then its unit.

Examples with answers:
* Cc1n[nH]c(C)c1S(=O)(=O)N[C@H](C)c1cccc2ccccc12 | -0.9%
* Cc1nn(C)c(C)c1S(=O)(=O)NCCC1=CCCCC1 | -3.1%
* Cc1n[nH]c(C)c1S(=O)(=O)NCCc1cccc(Cl)c1 | 0.9%
* COc1ccc(CCNS(=O)(=O)c2c(C)n[nH]c2C)cc1OC | 2.4%

Incoming: What measured inhibition at 4 h, 50 µM goes with Cc1nn(C)c(C)c1S(=O)(=O)N1CCC(c2nc3ccccc3[nH]2)CC1 ?
Outgoing: 0.2%

---

# Experiment summary: LDH release cytotoxicity assay
# Format: cell-based
# Run conditions: human, U937 cells
Reported property: inhibition at 4 h, 25 µM (%)
Give bare numbers, in %.

• Cc1nn(C)c(C)c1S(=O)(=O)NCCc1cccc(Cl)c1 = -1.3
• Cc1nn(C)c(C)c1S(=O)(=O)NCCC1=CCCCC1 = -3.6
• Cc1n[nH]c(C)c1S(=O)(=O)NCCc1cccc(Cl)c1 = -2.4

Count: 6. Required value per item: inhibition at 4 h, 25 µM.
1. Cc1nn(C)c(C)c1S(=O)(=O)NCCc1ccccc1
2. CCOCCn1c(C2CCN(S(=O)(=O)c3c(C)n[nH]c3C)CC2)nc2ccccc21
3. Cc1nn(C)c(C)c1S(=O)(=O)N[C@H](C)c1cccc2ccccc12
4. Cc1n[nH]c(C)c1S(=O)(=O)NCCc1ccccc1
5. Cc1n[nH]c(C)c1S(=O)(=O)NCCC1=CCCCC1
6. Cc1n[nH]c(C)c1S(=O)(=O)N[C@H](C)c1cccc2ccccc12

Outgoing:
1: -2.2; 2: -1.3; 3: -1.3; 4: -2.4; 5: -2.2; 6: -4

Incoming: Could you share which inhibition at 4 h, 25 µM value was measured for COc1ccc(CCNS(=O)(=O)c2c(C)n[nH]c2C)cc1OC ?
Outgoing: 2.7

All figures here come from paper PMC10373183.
